- procedure-summary: NCI Yeast Anticancer Drug Screen. Data for the mec2-1 strain (AID 157)
- condition-details: S. cerevisiae mec2-1 strain, at 50.0 µM, hits give high values
- Protocol: Growth inhibition of yeast strains with defined genetic alterations is measured as a screen for potential anti-cancer activity. Selected strains with alterations in DNA damage repair or cell cycle control were exposed to compounds and growth inhibition was measured relative to vehicle treated controls. The strain used in this assay is mec2-1
Compounds without any hit were thinned out: in the full panel of roughly 79,000, 15% have a hit.
Binary call on growth inhibition: Satisfied from 90% upward, Not satisfied beneath that.

compound	group
CCN(CC)CCCC(C)Nc1cc(O)c2c(c1O)C(=O)c1ccccc1C2=O (stereo not drawn)	Satisfied
COc1ccc(C2c3cn[nH]c3CC3CCCCC32)cc1 (stereo not drawn)	Not satisfied
O=C(OCc1ccccc1)c1ccccc1Cl	Not satisfied
CC(=O)N(c1ccccc1)C(C)C	Not satisfied
COc1ccc(N=C2C(=S)N(c3ccc(OC)cc3)/C(=N/S(=O)(=O)c3ccccc3)N2c2ccccc2)cc1	Not satisfied
CCOC(=O)c1ccc(NC(=O)CCl)cc1	Not satisfied
CCC(=O)Oc1c(Br)c(Br)c(Br)c(Br)c1Br	Not satisfied
Cc1sc(Cc2ccccc2)nc1-c1ccc(N=Cc2ccc(N(CCOS(C)(=O)=O)CCOS(C)(=O)=O)cc2)cc1	Satisfied
CC(Br)Cc1ccc2c(c1)OCO2 (stereo not drawn)	Not satisfied
OCC1CCc2[nH]c3ccccc3c2C1 (stereo not drawn)	Not satisfied
CC(=O)N=C1N(/C=C2\C(=O)Oc3ccccc3C2=O)C(=O)/C(=C/c2ccc(Cl)cc2Cl)N1C	Satisfied
CCCCCCCCCCCCNC(=O)OCC(C)O (stereo not drawn) (tested in a mixture with another compound)	Satisfied
O=C(/C=C/c1ccccc1)CCN1CCN(CCC(=O)/C=C/c2ccccc2)CC1	Satisfied
O=C(O)CCC/C(=N\Nc1ccccc1)C(=O)O	Satisfied
CCOC(=O)C1CCC(=O)O1 (stereo not drawn)	Not satisfied
O=S(=O)(Sc1ccccc1)c1ccccc1	Satisfied
Nc1ccc2nc(Nc3ccc(Cl)c(Cl)c3)cnc2c1	Not satisfied
O=S1(=O)c2ccccc2C(Br)C1Br (stereo not drawn)	Satisfied
Cc1ccccc1SCc1nc2ccccc2c(C)[n+]1[O-]	Not satisfied
O=C(c1ccccc1)c1ccc(O)cc1O	Not satisfied
O/N=C1/CCCC/C1=C/c1ccc(Cl)cc1	Not satisfied
N#CC1C(=O)NC(=O)CC1c1ccccc1 (stereo not drawn)	Satisfied
CC(=O)CCCOC(C)=O	Not satisfied
O=C1CCCC2c3ccccc3NC12 (stereo not drawn)	Not satisfied
Cc1ccc(NC(=O)Oc2ccc(C(C)(C)C)cc2Br)cc1NC(=O)Oc1ccc(C(C)(C)C)cc1Br	Not satisfied
O=Cc1cc(-c2ccccc2)n(-c2ccccc2)c1-c1ccccc1	Not satisfied
O/N=C(/CN1CCN(c2ccccc2)CC1)c1ccccc1	Not satisfied
COC(=O)CSc1n[nH]c(-c2ccc(O)c([N+](=O)[O-])c2)n1	Not satisfied
C#CCOC(=O)Nc1nc2ccc(SC#N)cc2s1	Satisfied
Clc1ccc(C2=CC(c3ccccc3)N3C(=N[C@H]4CCCC[C@@H]43)N2)cc1 (stereo partly drawn)	Not satisfied
CCCCCC(=O)NNc1ccccc1	Not satisfied
Cc1cc(SCC(=O)c2ccc(Br)cc2)cc(C)[o+]1	Satisfied
Cc1ccc(O)c(Cc2ccc(Cl)cc2)c1	Satisfied
COC(=O)N/N=C(\C)C(CN1CCOCC1)C(c1ccccc1)c1cc2ccccc2oc1=O (stereo not drawn)	Not satisfied
Cc1[nH]c2ccccc2c1/C=C1/CCCCCCC1=O	Satisfied
CCN(CC)c1c(C(=O)/C=C/c2ccc(OC)cc2)c(-c2ccccc2)nn(C)c1=O	Not satisfied
CS(=O)(=O)OCCN(CCOS(C)(=O)=O)c1ccc(C=Nc2cc(Cl)c(O)c(Cl)c2)c(Cl)c1	Not satisfied
CN(C)Cc1ccccc1C(=O)C(=O)c1ccccc1CN(C)C	Not satisfied
O=C(CCBr)NC(=O)Oc1cccc2ccccc12	Satisfied
CC1C/C(=N\N(C)C)C(C#N)(C#N)C1(C#N)C#N (stereo not drawn)	Not satisfied
Clc1ccc2nc(CCSCCc3nc4ccc(Cl)cc4[nH]3)[nH]c2c1	Satisfied
CCSC(=S)NC(=O)c1ccccc1	Not satisfied
Nc1nc(-c2cc3cc(Cl)ccc3o2)cs1	Not satisfied

The measured values listed here are drawn from PubChem BioAssay (NCI).
